Collected pEC50 values appear next to each entry.
- System: HBsAg
- recordedConditions: read-out: EC50, Extracell. HBsAg reduction; HepG2.2.15 cells
The scale used: pEC50 is minus the common logarithm of the concentration in molar units.

Solved entries (count: 5):
[[record]]
substance = "37 (CUGAAUGGAAAAAACAUUGAAUUUUCAAUGUUUUUUCCAUUCAGUU; siRNA; Self-complementary hairpin strand, chemistry not given here, further chemistry not given here; listed as Homo sapiens) [compound 37]"
studysystem = "HBsAg"
attributemeasured = "pEC50"
readoutvalue = 10.31

[[record]]
substance = "36 (CCUUUUUGAUUAAAUUCCUGCTTAGGAAUUUAAUCAAAAAGGCCTT; siRNA; Self-complementary hairpin strand, chemistry not given here, further chemistry not given here; listed as Homo sapiens) [compound 36]"
studysystem = "HBsAg"
attributemeasured = "pEC50"
readoutvalue = 8.04

[[record]]
substance = "48 (GCGCCAAGGACAUCAAGAATTUUCUUGAUGUCCUUGGCGCAA; siRNA; Self-complementary hairpin strand, chemistry not given here, further chemistry not given here; listed as Homo sapiens) [compound 48]"
studysystem = "HBsAg"
attributemeasured = "pEC50"
readoutvalue = 10.00

[[record]]
substance = "26 (GAAGCAAAGAAAGAAGAAUCCTTAUUCUUCUUUCUUUGCUUCCATT; siRNA; Self-complementary hairpin strand, chemistry not given here, further chemistry not given here; listed as Homo sapiens) [compound 26]"
studysystem = "HBsAg"
attributemeasured = "pEC50"
readoutvalue = 9.42

[[record]]
substance = "33 (UUGGUCUUUUUGACUAAACCUUUAGGUUUAGUCAAAAAGACCAAUU; siRNA; Self-complementary hairpin strand, chemistry not given here, further chemistry not given here; listed as Homo sapiens) [compound 33]"
studysystem = "HBsAg"
attributemeasured = "pEC50"
readoutvalue = 8.81


Ask | Tell me pEC50 reported for 34 (GCUGAAUGGAAAAAACAUUGATTAAUGUUUUUUCCAUUCAGCUCTT; siRNA; Self-complementary hairpin strand, chemistry not given here, further chemistry not given here; listed as Homo sapiens) [compound 34]
Reply | 9.82

Ask | Tell me pEC50 reported for 31 (UUUGGCCUGGCUUGUUUGCAAUUUUGCAAACAAGCCAGGCCAAAUU; siRNA; Self-complementary hairpin strand, chemistry not given here, further chemistry not given here; listed as Homo sapiens) [compound 31]
Reply | 10.92

* * *

- Tested on: HCoV-OC43
- assayName: OC43 virion RNA, Branched DNA assay, infected HCT8 cells
- Assay type: cell-based, human coronavirus OC43
- recordedConditions: 10 nM siRNA along with 10 nM of siRNA targeting GRP78, HCT8 cells
attributeMeasured: OC43 vRNA reduction siRNA and siGRP78 (%)
Kindly provide the numeric value in % only, without the unit symbol.

Solved entries (count: 3):
[[record]]
substance = "21 (CUGUUACAAUCAAGGUCUATTUAGACCUUGAUUGUAACAGTT; siRNA; Self-complementary hairpin strand, chemistry not given here, further chemistry not given here; listed as Homo sapiens) [compound 21]"
attributemeasured = "OC43 vRNA reduction siRNA and siGRP78"
readoutvalue = 90

[[record]]
substance = "43 (GUAUCGAGGCGGACGACGACCUUGGUCGUCGUCCGCCUCGAUACUU; siRNA; Self-complementary hairpin strand, chemistry not given here, further chemistry not given here; listed as Homo sapiens) [compound 43]"
attributemeasured = "OC43 vRNA reduction siRNA and siGRP78"
readoutvalue = 92

[[record]]
substance = "26 (GAAGCAAAGAAAGAAGAAUCCTTAUUCUUCUUUCUUUGCUUCCATT; siRNA; Self-complementary hairpin strand, chemistry not given here, further chemistry not given here; listed as Homo sapiens) [compound 26]"
attributemeasured = "OC43 vRNA reduction siRNA and siGRP78"
readoutvalue = 95


Ask | Tell me OC43 vRNA reduction siRNA and siGRP78 reported for 46 (GAAAGAUGAGAAGAAGGAGGAUUUCCUCCUUCUUCUCAUCUUUCUU; siRNA; Self-complementary hairpin strand, chemistry not given here, further chemistry not given here; listed as Homo sapiens) [compound 46]
Reply | 87
